biological target: human CD33 V39A (human, UniProt P20138 18-364); test: alanine scan, flow cytometry;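 further: HEK293-T cells transiently expressing single-residue alanine mutants of CD33 (alanine swapped to serine), antibody binding read by fluorescence in duplicate, background-subtracted, expressed relative to wild-type CD33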
Sequence (P20138 18-364 V39A limits assumed): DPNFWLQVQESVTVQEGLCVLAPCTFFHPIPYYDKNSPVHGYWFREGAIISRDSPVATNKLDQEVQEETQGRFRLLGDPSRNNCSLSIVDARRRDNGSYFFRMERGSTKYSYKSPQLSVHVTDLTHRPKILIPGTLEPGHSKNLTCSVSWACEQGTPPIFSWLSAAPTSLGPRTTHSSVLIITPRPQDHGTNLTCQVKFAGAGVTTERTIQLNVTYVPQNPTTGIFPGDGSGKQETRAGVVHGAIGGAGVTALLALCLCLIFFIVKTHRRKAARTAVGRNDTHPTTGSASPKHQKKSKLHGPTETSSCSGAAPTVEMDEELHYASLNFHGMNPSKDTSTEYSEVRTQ
Measured Mean % WT Binding of individual entries
Could you give me the number in % WT? Just the number is fine.

Below are worked cases with known answers.
Refmab #2 (antibody, V domains shown, Full-length format is human IgG1 Fc silent (PG-LALA); The alanine scan used IgG or Fab) VH: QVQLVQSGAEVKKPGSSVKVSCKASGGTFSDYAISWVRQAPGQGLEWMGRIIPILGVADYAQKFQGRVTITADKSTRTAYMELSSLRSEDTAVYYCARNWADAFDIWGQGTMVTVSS VL: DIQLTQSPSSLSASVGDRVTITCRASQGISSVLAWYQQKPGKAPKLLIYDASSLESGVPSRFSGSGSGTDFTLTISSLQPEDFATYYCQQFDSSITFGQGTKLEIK
111
Refmab #4 (antibody, V domains shown, Full-length format is human IgG1 Fc silent (PG-LALA); The alanine scan used IgG or Fab) VH: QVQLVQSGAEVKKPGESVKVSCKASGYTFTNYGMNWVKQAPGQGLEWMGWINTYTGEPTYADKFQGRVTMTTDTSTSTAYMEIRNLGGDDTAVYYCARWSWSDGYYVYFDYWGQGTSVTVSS VL: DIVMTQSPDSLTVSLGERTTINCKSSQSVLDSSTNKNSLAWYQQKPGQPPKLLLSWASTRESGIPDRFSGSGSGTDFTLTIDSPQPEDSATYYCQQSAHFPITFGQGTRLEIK
58.4
Refmab #3 (antibody, V domains shown, Full-length format is human IgG1 Fc silent (PG-LALA); The alanine scan used IgG or Fab) VH: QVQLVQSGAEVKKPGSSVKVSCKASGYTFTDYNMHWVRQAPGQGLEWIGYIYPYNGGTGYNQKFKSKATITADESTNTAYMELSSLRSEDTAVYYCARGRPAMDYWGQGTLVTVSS VL: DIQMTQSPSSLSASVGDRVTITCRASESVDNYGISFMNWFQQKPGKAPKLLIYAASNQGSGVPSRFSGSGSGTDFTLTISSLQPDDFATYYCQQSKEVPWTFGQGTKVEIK
122

From here, focus on the item given below.
Look up Mean % WT Binding of Refmab #1 (antibody, V domains shown, Full-length format is human IgG1 (Absolute Antibody Ab00283-10.0); The alanine scan used IgG or Fab; also called hP67.6) VH: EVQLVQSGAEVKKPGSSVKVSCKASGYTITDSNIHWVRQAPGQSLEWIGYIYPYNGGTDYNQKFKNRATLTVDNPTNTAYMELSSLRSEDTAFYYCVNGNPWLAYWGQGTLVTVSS VL: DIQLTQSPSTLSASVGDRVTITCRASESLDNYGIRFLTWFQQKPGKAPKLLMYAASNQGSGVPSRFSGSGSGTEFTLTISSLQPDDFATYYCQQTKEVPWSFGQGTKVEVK and report it.
80

Reference source for all entries: patent US20260242735A1
